Where do these numbers come from? They come from patent US20220411491A1.

biological target: human GPRC5D (human, UniProt Q9NZD1 1-345); test: cell-based or functional assay
Sequence (Q9NZD1 whole entry): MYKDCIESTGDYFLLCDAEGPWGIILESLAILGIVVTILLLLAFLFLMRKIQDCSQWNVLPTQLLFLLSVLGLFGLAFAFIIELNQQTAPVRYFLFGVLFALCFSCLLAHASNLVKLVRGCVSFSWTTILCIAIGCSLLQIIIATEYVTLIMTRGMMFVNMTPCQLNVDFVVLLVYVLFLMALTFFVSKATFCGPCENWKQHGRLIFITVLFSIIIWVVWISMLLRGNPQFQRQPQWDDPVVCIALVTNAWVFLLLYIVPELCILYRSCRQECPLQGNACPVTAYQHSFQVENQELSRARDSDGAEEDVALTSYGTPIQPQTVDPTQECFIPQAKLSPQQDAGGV
Listing of entries alongside the reported CAR-J2 EC50.

binder	unit	CAR-J2 EC50
P1AE5721 (antibody, V domains shown) VH: EVQLLESGGGLVQPGGSLRLSCAASGFTFSKYAMAWVRQAPGKGLEWVASISTGGVNTYYADSVKGRFTISRDNSKNTLYLQMNSLRAEDTAVYYCATHTGDYFDYWGQGTMVTVSS VL: DIVMTQSPDSLAVSLGERATINCKSSQSVSISGINLMNWYQQKPGQQPKLLIYHASILASGVPDRFSGSGSGTDFTLTISSLQAEDVAVYYCQQTRESPLTFGQGTRLEIK	µg/mL	0.025
P1AE5709 (antibody, V domains shown) VH: EVQLLESGGGLVQPGGSLRLSCAASGFTFSKYAMAWVRQAPGKGLEWVASISTGGVNTYYRDSVKARFTISRDNSKNTLYLQMNSLRAEDTAVYYCATHTGDYFDYWGQGTMVTVSS VL: EIVLTQSPGTLSLSPGERATLSCRASQSVSISGINLMNWYQQKPGQQPRLLIYHASILASGIPDRFSGSGSGTDFTLTISRLEPEDFAVYYCQQTRESPLTFGQGTRLEIK	µg/mL	0.0594
P1AE5710 (antibody, V domains shown) VH: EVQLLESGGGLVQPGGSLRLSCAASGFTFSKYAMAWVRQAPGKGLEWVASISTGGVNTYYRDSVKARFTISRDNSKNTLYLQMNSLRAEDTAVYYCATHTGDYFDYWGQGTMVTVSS VL: EIVLTQSPGTLSLSPGERATLSCRASQSVSISGINLMNWYQQKPGQQPKLLIYHASILASGIPDRFSGSGSGTDFTLTISRLEPEDFAVYYCQQTRESPLTFGQGTRLEIK	µg/mL	0.0035
P1AE5706 (antibody, V domains shown) VH: ELQLEQSGGGLVQPGGSLTLSCAASGFTFSKYAMAWVRQAPTKGLEWVASISTGGVNTYYRDSVKARFTISRDNAKNTQYLQMDSLRSEDTATYYCATHTGDYFDYWGQGVMVTVSS VL: DIVLTQSPALAVSPGQRATISCRASQSVSISGINLMNWYQQKPGQQPKLLIYHASILASGIPTRFSGSGSGTDFTLTIDPVQADDIATYYCQQTRESPLTFGSGTNLEIK	µg/mL	0.0039
